Origin of values: ChEMBL document CHEMBL2218924

- ASSAYED_TARGET: Glycogen synthase kinase-3 beta (Homo sapiens)
- REPORTED_CONDITIONS: at 1 µM
# label = yes (1) if residual activity < 70% else no (0)

Take a look at these entries with their results.
[
  {
    "COMPOUND": "O=Nc1c(-c2c(O)[nH]c3ccccc23)[nH]c2ccccc12",
    "CATEGORY_LABEL": "yes (1)"
  },
  {
    "COMPOUND": "Nc1nc(Nc2ccc(S(N)(=O)=O)cc2)nn1C(=S)Nc1c(F)cccc1F",
    "CATEGORY_LABEL": "yes (1)"
  },
  {
    "COMPOUND": "N#CCCc1ccc2c(c1)-c1[nH]c3ccc([N+](=O)[O-])cc3c1CC(=O)N2",
    "CATEGORY_LABEL": "yes (1)"
  },
  {
    "COMPOUND": "c1ccc(-c2n[nH]c3c2oc2ccccc23)cc1",
    "CATEGORY_LABEL": "no (0)"
  },
  {
    "COMPOUND": "COc1ccc(C(=O)Nc2sc3c(c2C(N)=O)CCCC3)cc1OC",
    "CATEGORY_LABEL": "no (0)"
  }
]

Exam item: Please check: residual activity for "Cc1nc2cc3nc(-c4cccs4)cnc3cc2n1C" , strictly under 70% or not?
Marked response: no (0)

Exam item: Please determine if "C[C@@H](N)[C@H]1CC[C@H](C(=O)Nc2ccncc2)CC1" is below 70% in terms of residual activity.
Marked response: no (0)

Exam item: Below 70% on residual activity? Entry "N#CC(C#N)=C(N)/C(C#N)=C/c1ccc(O)cc1"
Marked response: no (0)

Exam item: Say whether its residual activity is strictly beneath 70%. Entry: O=C1Nc2ccccc2/C1=C1/Nc2ccccc2/C1=N\OCCC(O)CO (configuration not stated)
Marked response: yes (1)

Exam item: Answer whether the compound "Nc1cccc(-c2cc3c(Oc4cccc(O)c4)ncnc3[nH]2)c1" has residual activity strictly less than 70%
Marked response: yes (1)

Exam item: Please indicate whether the reported residual activity of "Nc1n[nH]c2nnc(-c3c(-c4ccccc4)nn4ccccc34)cc12" is strictly below 70%.
Marked response: no (0)

Exam item: Does "CCN(CC)CCCCN1c2ccccc2Oc2ccc(Cl)cc21" have residual activity strictly under 70%?
Marked response: no (0)

Exam item: Report whether reported residual activity is lower than 70% (strictly) for "Cc1ccc(S(=O)(=O)/C=C/C#N)cc1"
Marked response: no (0)

* * *

- ASSAYED_TARGET: Serine/threonine-protein kinase WNK3 (Homo sapiens)
- REPORTED_CONDITIONS: at 1 µM
- Description: Millipore: Percentage of residual kinase activity of WNK3 at 1uM relative to control. Control inhibitor: Phosphoric acid* at 0.3uM. Buffer: 8 mM MOPS pH 7.0, 0.2 mM EDTA
The following compounds are shown together with reported residual activity values.
Give the value, in units of %, as a plain number.

Known residual activity results, listed for orientation:
[
  {
    "CPD_SMILES": "COc1ccc(OC)c2c(=S)c3ccccc3[nH]c12",
    "QUANTITATIVE_RESULT": 89
  },
  {
    "CPD_SMILES": "CCOc1cc2ncnc(Nc3cccc(Br)c3)c2cc1OCC",
    "QUANTITATIVE_RESULT": 99
  }
]

Next, consider the following compound.
Exam item: Request body: readout residual activity, system Serine/threonine-protein kinase WNK3 (Homo sapiens), query "O=C1NC(=O)c2cc(Nc3ccc(F)cc3)c(Nc3ccc(F)cc3)cc21" . Return the value.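 Also: remaining kinase activity expressed versus control, assayed in 8 mM MOPS buffer pH 7.0 with 0.2 mM EDTA.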
Marked response: 87

* * *

- ASSAYED_TARGET: Tyrosine-protein kinase HCK (Homo sapiens)
- REPORTED_CONDITIONS: at 1 µM
MEASUREMENT_KIND: residual activity (%)
Form entry: value (%) — number only.

[
  {
    "CPD_SMILES": "Cn1nc2c3c(cccc31)C(=O)c1ccccc1-2",
    "UNIT": "%",
    "residual activity": 96
  },
  {
    "CPD_SMILES": "COc1ccc(CNc2nc(N(CCO)CCO)nc3c2ncn3C(C)C)cc1",
    "UNIT": "%",
    "residual activity": 102
  }
]

Exam item: For the molecule shown here, "Oc1c2ccccc2c2c3c(cccc13)N=N2" , give the reported residual activity.
Marked response: 80

Exam item: Which value of residual activity has been reported for "CCN(CC)C(=O)c1ccc(Nc2nc(OCC3CCCCC3)c3nc[nH]c3n2)cc1" in the records?
Marked response: 43

* * *

- ASSAYED_TARGET: Serine/threonine-protein kinase mTOR (Homo sapiens)
- REPORTED_CONDITIONS: at 1 µM
MEASUREMENT_KIND: residual activity (%)
Form entry: value (%) — number only.

Some compounds with recorded residual activity:
[
  {
    "CPD_SMILES": "O=C(Nc1cccc(Nc2nccc(Nc3cccc(C(F)(F)F)c3)n2)c1)C1CC1",
    "ASSAYED_TARGET": "Serine/threonine-protein kinase mTOR (Homo sapiens)",
    "UNIT": "%",
    "residual activity": 79
  },
  {
    "CPD_SMILES": "Cn1cc(/C=C2\\C(=O)Nc3ccc(S(N)(=O)=O)cc32)c2ccccc21",
    "ASSAYED_TARGET": "Serine/threonine-protein kinase mTOR (Homo sapiens)",
    "UNIT": "%",
    "residual activity": 106
  }
]

Exam item: // query residual activity value for entry "N#Cc1cnc2cnc(NCc3cccnc3)cc2c1Nc1ccc(F)c(Cl)c1"
Marked response: 89

Exam item: residual activity for "COc1ccc(C(=O)Nc2sc3c(c2C(N)=O)CCCC3)cc1OC" ?
Marked response: 101

Exam item: Need residual activity of "CCN(CC)CCCCN1c2ccccc2Oc2ccc(Cl)cc21" , thanks.
Marked response: 110

Exam item: So what does the record say about residual activity for "c1ccc2c(-c3ccncc3)c[nH]c2c1" ?
Marked response: 109

Exam item: residual activity lookup needed for "CO[C@H]1[C@@H](OC)C[C@H](C)[C@@H](OC)C2=CC(=O)C=C(NC(=O)/C(C)=C/C=C/[C@H](OC)[C@@H](OC(N)=O)/C(C)=C/[C@@H]1C)C2=O" , thanks.
Marked response: 95

Exam item: Any idea what residual activity was measured for "Oc1ccc(-c2nc(-c3ccc(F)cc3)c(-c3ccncc3)[nH]2)cc1" ?
Marked response: 98

Exam item: # lookup: residual activity of "CC[n+]1c(/C=C/N(C)c2ccccc2)n(-c2ccccc2)c2ccc(-c3nc4ccccc4s3)cc21"
Marked response: 85

Exam item: If you can, please state the reported residual activity value of "Cc1cc2ncc(-c3ccccc3)nc2cc1C" .
Marked response: 93

* * *

Measured residual activity, listed per entry.
- ASSAYED_TARGET: Serine/threonine-protein kinase VRK2 (Homo sapiens)
- REPORTED_CONDITIONS: at 10 µM
- Description: Millipore: Percentage of residual kinase activity of VRK2 at 10uM relative to control. Control inhibitor: Phosphoric acid* at 0.3uM. Buffer: 8 mM MOPS pH 7.0, 0.2 mM EDTA
# output: bare number, implied unit %

The cases that follow already have their residual activity on record.
[
  {
    "CPD_SMILES": "Ic1cccc(CSc2nnc(-c3ccncc3)o2)c1",
    "residual activity / %": 79
  },
  {
    "CPD_SMILES": "N#CC(C#N)=C(N)/C(C#N)=C/c1ccc(O)cc1",
    "residual activity / %": 94
  },
  {
    "CPD_SMILES": "NC(=O)c1ccc2[nH]c(-c3ccc(Oc4ccc(Cl)cc4)cc3)nc2c1",
    "residual activity / %": 82
  }
]

Proceed to the following item.
Exam item: Find the measured residual activity: item "COc1ccc(C(=O)Nc2sc3c(c2C(N)=O)CCCC3)cc1OC" , target or system Serine/threonine-protein kinase VRK2 (Homo sapiens).
Marked response: 85

* * *

Reported residual activity values are given for each entry in this list.
- ASSAYED_TARGET: Rho-associated protein kinase 1 (Homo sapiens) (UniProt Q13464)
- Sequence (Q13464 2-1354 limits assumed): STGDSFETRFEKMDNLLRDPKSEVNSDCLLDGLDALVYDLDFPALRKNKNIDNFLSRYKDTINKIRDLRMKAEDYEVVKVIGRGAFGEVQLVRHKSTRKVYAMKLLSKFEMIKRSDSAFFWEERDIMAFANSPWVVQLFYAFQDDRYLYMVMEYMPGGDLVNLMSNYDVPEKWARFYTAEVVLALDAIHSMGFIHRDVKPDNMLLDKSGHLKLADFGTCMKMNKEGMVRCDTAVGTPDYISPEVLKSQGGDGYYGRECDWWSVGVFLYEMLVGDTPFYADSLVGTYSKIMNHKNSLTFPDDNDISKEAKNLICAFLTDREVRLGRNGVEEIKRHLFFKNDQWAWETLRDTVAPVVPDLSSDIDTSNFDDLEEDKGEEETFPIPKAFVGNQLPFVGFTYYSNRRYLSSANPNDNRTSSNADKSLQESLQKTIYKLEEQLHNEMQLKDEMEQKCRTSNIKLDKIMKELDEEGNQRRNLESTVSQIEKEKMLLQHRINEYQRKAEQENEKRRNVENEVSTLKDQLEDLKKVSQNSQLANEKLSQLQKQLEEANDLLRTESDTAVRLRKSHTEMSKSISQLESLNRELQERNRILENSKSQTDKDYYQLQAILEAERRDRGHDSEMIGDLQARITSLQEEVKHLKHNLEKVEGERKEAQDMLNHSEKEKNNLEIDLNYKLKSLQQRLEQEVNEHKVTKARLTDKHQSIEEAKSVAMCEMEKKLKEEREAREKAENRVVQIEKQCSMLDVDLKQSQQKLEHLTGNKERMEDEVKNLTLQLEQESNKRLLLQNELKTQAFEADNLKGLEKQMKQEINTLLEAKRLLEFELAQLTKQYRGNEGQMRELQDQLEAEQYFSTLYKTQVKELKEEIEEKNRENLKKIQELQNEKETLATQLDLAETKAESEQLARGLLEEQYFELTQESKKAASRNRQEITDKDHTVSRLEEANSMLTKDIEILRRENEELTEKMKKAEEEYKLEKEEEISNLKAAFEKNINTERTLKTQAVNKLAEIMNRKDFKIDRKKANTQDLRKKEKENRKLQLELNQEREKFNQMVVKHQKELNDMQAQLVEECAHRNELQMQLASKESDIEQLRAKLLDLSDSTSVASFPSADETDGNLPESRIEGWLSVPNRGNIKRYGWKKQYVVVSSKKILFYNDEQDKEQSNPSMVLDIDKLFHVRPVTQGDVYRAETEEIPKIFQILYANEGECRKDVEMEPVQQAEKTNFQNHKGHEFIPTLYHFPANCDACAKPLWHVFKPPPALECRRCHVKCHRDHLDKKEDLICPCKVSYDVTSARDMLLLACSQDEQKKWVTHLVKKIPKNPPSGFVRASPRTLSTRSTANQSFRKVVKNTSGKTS
- REPORTED_CONDITIONS: at 1 µM
Could you give me the number in %? Just the number is fine.

Please review the following examples before continuing.
[
  {
    "CPD_SMILES": "Oc1ccc(Nc2nc(-c3ccc(Cl)cc3)cs2)cc1",
    "UNIT": "%",
    "QUANTITATIVE_RESULT": 122
  },
  {
    "CPD_SMILES": "COc1ccc(S(=O)(=O)N(CCO)c2ccccc2CN(C)C/C=C/c2ccc(Cl)cc2)cc1",
    "UNIT": "%",
    "QUANTITATIVE_RESULT": 134
  },
  {
    "CPD_SMILES": "Ic1cccc(CSc2nnc(-c3ccncc3)o2)c1",
    "UNIT": "%",
    "QUANTITATIVE_RESULT": 113
  },
  {
    "CPD_SMILES": "Nc1nc(Nc2ccc(S(N)(=O)=O)cc2)nn1C(=S)Nc1c(F)cccc1F",
    "UNIT": "%",
    "QUANTITATIVE_RESULT": 6
  },
  {
    "CPD_SMILES": "Cc1nc(-c2ccccc2)c(-c2ccncc2)o1",
    "UNIT": "%",
    "QUANTITATIVE_RESULT": 124
  }
]

Exam item: Query for Rho-associated protein kinase 1 (Homo sapiens) (UniProt Q13464): what residual activity does the record show for "O=C1Nc2ccc(Br)cc2/C1=C\c1cc2c([nH]1)CCCC2" ?
Marked response: 119
